Measured Maximal in vivo body weight loss (% of baseline) of individual entries
# System: body weight
# protocolSummary: Body weight loss in mice on ad lib. 'cafeteria' diet, 3 wks repeated p.o.
# Assay type: in vivo, mouse
# experimentalConditions: approximate, vehicle-corrected, AZ data on file

Here is how some compounds turned out for Maximal in vivo body weight loss (% of baseline).
[ask] Read off the recorded Maximal in vivo body weight loss (% of baseline) for Cc1c2c(n(-c3ccc(Cl)cc3Cl)c1-c1ccc(OS(=O)(=O)CCC(F)(F)F)cc1)CCN(N1CCCCC1)C2=O [AZ compound 2]
[reply] ~30% of baseline

[ask] Name the recorded Maximal in vivo body weight loss (% of baseline) of the compound listed here: Cc1c2c(n(-c3ccc(F)cc3Cl)c1-c1ccc(OS(=O)(=O)CCC(F)(F)F)cc1)CCN(N1CCCCC1)C2=O [AZ compound 3]
[reply] ~30% of baseline

[ask] Could you please provide reported Maximal in vivo body weight loss (% of baseline) for Cc1c(C(=O)NN2CCCCC2)nn(-c2ccc(Cl)cc2Cl)c1-c1ccc(Cl)cc1 [Rimonabant] ? Thanks!
[reply] ~20% of baseline

[ask] Please look at this compound and report its Maximal in vivo body weight loss (% of baseline): Cc1c(C(=O)NN2CCCCC2)nc(-c2ccc(Cl)cc2Cl)n1-c1ccc(OS(=O)(=O)CCC(F)(F)F)cc1 [AZ compound 1]
[reply] ~23–25% of baseline

Alright, here's another compound for you.
[ask] Note Maximal in vivo body weight loss (% of baseline) for the compound shown: C[C@H](NC(=O)C(C)(C)Oc1ccc(C(F)(F)F)cn1)[C@@H](Cc1ccc(Cl)cc1)c1cccc(C#N)c1 [Taranabant, reference compound]
[reply] ~30% of baseline

----------
# targetOfAssay: hCB1R (Homo sapiens, UniProt P21554)
# Sequence (P21554 whole entry): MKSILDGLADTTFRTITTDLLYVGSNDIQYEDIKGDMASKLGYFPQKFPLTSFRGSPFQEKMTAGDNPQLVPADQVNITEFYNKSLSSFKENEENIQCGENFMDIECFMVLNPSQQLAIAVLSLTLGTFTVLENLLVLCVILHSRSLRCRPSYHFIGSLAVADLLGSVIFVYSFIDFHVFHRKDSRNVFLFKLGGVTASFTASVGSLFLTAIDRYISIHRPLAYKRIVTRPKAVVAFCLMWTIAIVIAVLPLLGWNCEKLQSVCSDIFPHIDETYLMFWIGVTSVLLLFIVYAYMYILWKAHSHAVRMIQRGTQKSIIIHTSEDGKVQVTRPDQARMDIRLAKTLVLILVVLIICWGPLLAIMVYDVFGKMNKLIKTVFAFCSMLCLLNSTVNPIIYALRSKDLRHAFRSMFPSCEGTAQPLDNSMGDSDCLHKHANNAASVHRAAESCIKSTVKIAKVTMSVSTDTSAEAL
# Type: biochemical
reportedMetric: pKi
pKi (log units): -log10 of the concentration in mol/L.

[ask] For `Cc1c(C(=O)NN2CCCCC2)nc(-c2ccc(Cl)cc2Cl)n1-c1ccc(OS(=O)(=O)CCC(F)(F)F)cc1` , write its pKi.
[reply] 9.72

[ask] Return pKi (reported value) for this compound: `Cc1c2c(n(-c3ccc(F)cc3Cl)c1-c1ccc(OS(=O)(=O)CCC(F)(F)F)cc1)CCN(N1CCCCC1)C2=O`
[reply] 9.62

[ask] Kindly indicate its recorded pKi. Item: `Cc1c2c(n(-c3ccc(Cl)cc3Cl)c1-c1ccc(OS(=O)(=O)CCC(F)(F)F)cc1)CCN(N1CCCCC1)C2=O`
[reply] 9.70

----------
// pKi lookup, one value per entry
# targetOfAssay: mCB1R (Mus musculus, UniProt P47746)
# Sequence (P47746 whole entry): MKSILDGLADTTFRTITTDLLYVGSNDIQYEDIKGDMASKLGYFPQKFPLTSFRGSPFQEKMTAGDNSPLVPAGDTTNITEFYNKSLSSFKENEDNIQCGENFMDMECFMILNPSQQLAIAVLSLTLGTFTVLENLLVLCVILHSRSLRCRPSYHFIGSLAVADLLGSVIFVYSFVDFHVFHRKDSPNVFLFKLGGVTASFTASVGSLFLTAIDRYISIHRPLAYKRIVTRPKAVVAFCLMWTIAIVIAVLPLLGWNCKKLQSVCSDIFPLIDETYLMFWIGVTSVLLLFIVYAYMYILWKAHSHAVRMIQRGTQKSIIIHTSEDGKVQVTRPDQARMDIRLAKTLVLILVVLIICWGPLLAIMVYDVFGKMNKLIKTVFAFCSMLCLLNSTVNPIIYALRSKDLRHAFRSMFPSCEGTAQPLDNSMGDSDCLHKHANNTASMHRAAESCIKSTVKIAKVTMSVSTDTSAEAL
pKi is a log-scale quantity: -log10 of the concentration expressed in molar.

Examples with their reported pKi follow.
[ask] # return recorded pKi for input C[C@H](NC(=O)C(C)(C)Oc1ccc(C(F)(F)F)cn1)[C@@H](Cc1ccc(Cl)cc1)c1cccc(C#N)c1 [Taranabant, reference compound]
[reply] 11.00

[ask] Note down pKi recorded for Cc1c2c(n(-c3ccc(Cl)cc3Cl)c1-c1ccc(OS(=O)(=O)CCC(F)(F)F)cc1)CCN(N1CCCCC1)C2=O [AZ compound 2]
[reply] 10.70

[ask] Supply measured pKi of Cc1c2c(n(-c3ccc(F)cc3Cl)c1-c1ccc(OS(=O)(=O)CCC(F)(F)F)cc1)CCN(N1CCCCC1)C2=O [AZ compound 3] in your reply.
[reply] 10.52

Now let's try a different one.
[ask] # return recorded pKi for entry Cc1c(C(=O)NN2CCCCC2)nc(-c2ccc(Cl)cc2Cl)n1-c1ccc(OS(=O)(=O)CCC(F)(F)F)cc1 [AZ compound 1]
[reply] 10.52

Cited source for all entries: paper PMC4678037
